Measured values drawn from paper PMC2248166 for this set.

systemUnderTest: HLA B*5802 (Homo sapiens, UniProt P01889, A329T/C349S/D201E/D98Y/E176V/E187L/E204Q/E69T/G107R/I218V/I90N/K202T/L105A/N104I/N87E/Q89R/Q94S/R106L/R155S/R180L/R86G/S101N/S121W/S35A/S48A/V127L/V306I/V36M/Y140S/Y91M)
Format: binding
quantityName: Normalized average relative binding affinity(ARB)
# answer = number (no unit)

[[record]]
sequenceinput = "XXXXXXWXX [3064.0139]"
reportedresult = 0.18

[[record]]
sequenceinput = "XXXIXXXXX [3064.0068]"
reportedresult = 0.33


Kindly review the next sequence as well.
May I ask what Normalized average relative binding affinity(ARB) has been recorded for XXXXXXNXX [3064.0132] ?
0.092
